- target of assay: human P2X3 receptor (Homo sapiens, UniProt P56373)
- Sequence (P56373 whole entry): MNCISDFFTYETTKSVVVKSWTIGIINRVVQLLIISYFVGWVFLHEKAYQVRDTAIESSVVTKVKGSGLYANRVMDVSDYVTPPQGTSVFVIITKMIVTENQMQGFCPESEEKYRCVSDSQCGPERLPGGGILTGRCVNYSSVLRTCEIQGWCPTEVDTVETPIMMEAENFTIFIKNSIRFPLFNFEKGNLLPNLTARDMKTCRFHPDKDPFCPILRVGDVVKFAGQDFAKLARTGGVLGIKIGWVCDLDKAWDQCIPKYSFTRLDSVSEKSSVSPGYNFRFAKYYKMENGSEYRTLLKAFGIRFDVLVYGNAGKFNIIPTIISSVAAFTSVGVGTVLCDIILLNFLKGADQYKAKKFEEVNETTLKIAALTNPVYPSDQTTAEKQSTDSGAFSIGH
- protocol details: Intracellular calcium measurement to assess antagonist activity at human P2X3 receptors (hP2X3 CHO), photina luminescence
- Assay type: cell-based
- Parameters: expressed in transfected cells; host or cells: Chinese hamster ovary (CHO) cells
- conditions: column 2), CHO cells, agonist α,β-methylene-ATP at EC50
Entries annotated with measured log10 of IC50
experimental readout: log10 of IC50 (log10 of the value in nM)

>  <compound>
CC(C)N1Cc2c(n(CC(=O)Nc3ccc(F)cn3)c3cc(C(=O)NCCCO)nn3c2=O)C1=O

>  <recorded number>
2.16

$$$$
>  <compound>
CNC(=O)c1cc2n(CC(=O)Nc3ccc(F)cn3)c3c(c(=O)n2n1)CN([C@@H](C)COC)C3=O

>  <recorded number>
2.19

$$$$
>  <compound>
CCc1cc2n(CC(=O)Nc3ccc(F)cn3)c3c(c(=O)n2n1)CN(CCN1CCOCC1)C3=O

>  <recorded number>
2.25

$$$$
>  <compound>
CCOC(=O)c1cc2n(CC(=O)Nc3ccc(F)cn3)c3c(c(=O)n2n1)CN(Cc1ccccn1)C3=O

>  <recorded number>
1.00

$$$$
>  <compound>
CC(C)N1Cc2c(n(CC(=O)Nc3ccc(F)cn3)c3cc(C(=O)Nc4ccccn4)nn3c2=O)C1=O

>  <recorded number>
1.57

$$$$
>  <compound>
COC[C@@H](C)N1Cc2c(n(CC(=O)Nc3ccc(F)cn3)c3cc(C(C)C)nn3c2=O)C1=O

>  <recorded number>
1.59

$$$$
>  <compound>
COC[C@H](C)N1Cc2c(n(CC(=O)Nc3ccc(F)cn3)c3cc(C(=O)N4CCCCC4)nn3c2=O)C1=O

>  <recorded number>
1.54

$$$$
>  <compound>
CCc1cc2n(CC(=O)Nc3ccc(F)cn3)c3c(c(=O)n2n1)CN(C[C@@H]1CNCCO1)C3=O

>  <recorded number>
2.92

$$$$
>  <compound>
CCc1cc2n(CC(=O)Nc3ccc(F)cn3)c3c(c(=O)n2n1)CN(Cc1ccccn1)C3=O

>  <recorded number>
1.26

$$$$
>  <compound>
CCc1cc2n(CC(=O)Nc3ccc(F)cn3)c3c(c(=O)n2n1)CN(CCNC(=O)OC(C)(C)C)C3=O

>  <recorded number>
1.23

$$$$
>  <compound>
Cc1cccnc1-c1cc2n(CC(=O)Nc3ccc(F)cn3)c3c(c(=O)n2n1)CN(C(C)C)C3=O

>  <recorded number>
2.60

$$$$
>  <compound>
CC(C)N1Cc2c(n(CC(=O)Nc3ccc(F)cn3)c3cc(NCC4CC4)nn3c2=O)C1=O

>  <recorded number>
1.86

$$$$
>  <compound>
CCc1cc2n(CC(=O)Nc3ccc(Cl)cn3)c3c(c(=O)n2n1)CN(C(C)C)C3=O

>  <recorded number>
1.91

$$$$
>  <compound>
CCc1cc2n(CC(=O)Nc3ccc(F)cn3)c3c(c(=O)n2n1)CN(CC1CCCN1C(=O)OC(C)(C)C)C3=O (stereo not drawn)

>  <recorded number>
2.01

$$$$
>  <compound>
CCc1cc2n(CC(=O)Nc3ccc(F)cn3)c3c(c(=O)n2n1)CN(Cc1ccc(C)nc1)C3=O

>  <recorded number>
1.43

$$$$

Data origin, for the record: patent US11319324B2
